experiment: Phase 1 plasma pharmacokinetics; assay type: in vivo, human; details: human, plasma, oral, 60 mg, T1/2, Median, abexinostat continuous administration (BID, 4-h interval) on C1D7, 60 mg (n = 3)
readout: half-life (h)
The answer is to be given in h; state only the numeric part.

Data request: Given the compound "CN(C)Cc1c(C(=O)NCCOc2ccc(C(=O)NO)cc2)oc2ccccc12" , what is its reported half-life?
Data returned: 6.53

Just for reference, paper PMC12123727 is where these values come from.
